target.system: Glutamate receptor ionotropic, kainate 1 (Homo sapiens)
Sequence (P39086 whole entry, the tested form may be a part): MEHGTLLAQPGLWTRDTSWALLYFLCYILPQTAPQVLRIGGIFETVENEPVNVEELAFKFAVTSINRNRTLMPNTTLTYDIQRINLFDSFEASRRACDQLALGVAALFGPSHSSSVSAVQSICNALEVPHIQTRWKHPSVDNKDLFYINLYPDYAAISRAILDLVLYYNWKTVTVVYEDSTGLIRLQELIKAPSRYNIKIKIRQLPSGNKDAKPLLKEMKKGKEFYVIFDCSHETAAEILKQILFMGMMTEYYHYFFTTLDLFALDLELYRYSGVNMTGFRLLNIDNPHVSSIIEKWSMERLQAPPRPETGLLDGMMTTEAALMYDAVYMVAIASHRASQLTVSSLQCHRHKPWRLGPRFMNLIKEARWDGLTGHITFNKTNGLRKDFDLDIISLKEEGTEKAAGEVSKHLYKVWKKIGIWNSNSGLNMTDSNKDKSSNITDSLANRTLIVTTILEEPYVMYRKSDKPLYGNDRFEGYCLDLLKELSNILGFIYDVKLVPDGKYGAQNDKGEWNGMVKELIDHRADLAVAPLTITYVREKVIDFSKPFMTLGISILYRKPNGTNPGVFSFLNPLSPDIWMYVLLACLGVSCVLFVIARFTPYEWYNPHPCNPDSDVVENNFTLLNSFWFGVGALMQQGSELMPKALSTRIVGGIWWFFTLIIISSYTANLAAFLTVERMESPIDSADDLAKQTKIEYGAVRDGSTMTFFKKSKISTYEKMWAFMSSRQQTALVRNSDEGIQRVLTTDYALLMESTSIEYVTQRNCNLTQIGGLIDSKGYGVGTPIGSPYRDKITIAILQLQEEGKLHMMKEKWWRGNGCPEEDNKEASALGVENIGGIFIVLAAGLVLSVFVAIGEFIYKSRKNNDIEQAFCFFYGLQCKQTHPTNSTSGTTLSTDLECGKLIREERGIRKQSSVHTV
protocol: Binding affinity to GluK1 ligand binding domain (unknown origin)
pKi: −log10 of the molar value.
readout.kind: pKi

N[C@@H](CCc1ccc2[nH]c(=O)c(=O)[nH]c2c1)C(=O)O: 4.43

====

target.system: Cyclin-dependent kinase 5 (Homo sapiens, UniProt Q00535)
Sequence (Q00535 whole entry): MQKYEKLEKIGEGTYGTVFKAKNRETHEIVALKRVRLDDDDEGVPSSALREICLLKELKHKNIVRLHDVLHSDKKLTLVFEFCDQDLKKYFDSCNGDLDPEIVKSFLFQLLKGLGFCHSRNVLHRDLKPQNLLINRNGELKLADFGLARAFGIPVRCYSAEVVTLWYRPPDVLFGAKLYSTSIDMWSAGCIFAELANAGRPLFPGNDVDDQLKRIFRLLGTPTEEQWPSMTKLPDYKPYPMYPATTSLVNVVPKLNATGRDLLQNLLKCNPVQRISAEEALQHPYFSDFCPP
readout.kind: IC50 (µM)

C[C@H]1C[C@@H]2CN1CCn1[nH]c3c(cccc3c1=O)-c1nc3c(cccc3[nH]c1=O)O2: 4.5

====

Here, each record is paired with measured pIC50 data.
target.system: Voltage-gated inwardly rectifying potassium channel KCNH2 (Homo sapiens)
Sequence (Q12809 whole entry): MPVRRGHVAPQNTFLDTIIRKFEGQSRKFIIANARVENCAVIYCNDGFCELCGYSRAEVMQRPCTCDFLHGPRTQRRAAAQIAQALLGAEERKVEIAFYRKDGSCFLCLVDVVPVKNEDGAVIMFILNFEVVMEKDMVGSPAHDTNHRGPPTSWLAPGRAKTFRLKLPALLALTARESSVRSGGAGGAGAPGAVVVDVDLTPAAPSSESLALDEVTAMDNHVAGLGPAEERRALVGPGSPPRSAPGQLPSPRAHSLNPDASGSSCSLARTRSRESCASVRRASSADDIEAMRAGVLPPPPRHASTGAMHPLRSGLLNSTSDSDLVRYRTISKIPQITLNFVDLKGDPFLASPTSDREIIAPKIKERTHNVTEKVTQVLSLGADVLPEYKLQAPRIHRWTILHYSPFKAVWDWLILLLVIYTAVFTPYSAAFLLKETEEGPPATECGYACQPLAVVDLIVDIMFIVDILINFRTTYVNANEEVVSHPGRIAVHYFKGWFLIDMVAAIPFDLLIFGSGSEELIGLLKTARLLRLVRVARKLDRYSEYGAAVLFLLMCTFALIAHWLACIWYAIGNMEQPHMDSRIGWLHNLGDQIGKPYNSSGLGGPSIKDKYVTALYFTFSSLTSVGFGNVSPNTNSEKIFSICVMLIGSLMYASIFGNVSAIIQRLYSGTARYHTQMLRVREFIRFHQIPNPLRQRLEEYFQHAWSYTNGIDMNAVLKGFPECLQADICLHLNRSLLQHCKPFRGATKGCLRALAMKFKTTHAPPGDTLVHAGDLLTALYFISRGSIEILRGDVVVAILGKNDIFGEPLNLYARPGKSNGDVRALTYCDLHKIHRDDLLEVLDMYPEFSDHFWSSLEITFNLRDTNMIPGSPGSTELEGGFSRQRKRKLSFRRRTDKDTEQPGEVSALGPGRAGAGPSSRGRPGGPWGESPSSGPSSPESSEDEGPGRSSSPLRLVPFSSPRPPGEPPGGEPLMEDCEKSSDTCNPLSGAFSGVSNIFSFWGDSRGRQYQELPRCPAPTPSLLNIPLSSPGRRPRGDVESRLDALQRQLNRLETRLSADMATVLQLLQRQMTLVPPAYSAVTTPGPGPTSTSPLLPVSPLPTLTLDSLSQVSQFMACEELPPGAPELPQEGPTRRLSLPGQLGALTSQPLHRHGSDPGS
pIC50: −log10 of the molar value.
readout.kind: pIC50

COc1ccc2nccc(CC[C@H]3OC[C@H](NC(=O)c4ccc5c(c4)OCCO5)CO3)c2c1: < 4.00
N[C@H](Cn1c(=O)cnc2ccc(F)cc21)[C@H]1CC[C@H](NCc2ncc3c(n2)NC(=O)CO3)CC1: < 3.48
COc1cnc2ccc(=O)n(C[C@@H](N)[C@H]3CC[C@H](NCc4ccc5c(n4)NC(=O)CO5)CC3)c2c1: < 3.48

Reference for the values: ChEMBL document CHEMBL5113380
